target: HDAC1 (Homo sapiens, UniProt Q13547); assay: HDAC enzyme activity assay (fluorogenic substrate), HDAC1; type: biochemical; settings: recombinant enzyme; read-out: HDAC1 inhibition (IC50)
Sequence (Q13547 whole entry): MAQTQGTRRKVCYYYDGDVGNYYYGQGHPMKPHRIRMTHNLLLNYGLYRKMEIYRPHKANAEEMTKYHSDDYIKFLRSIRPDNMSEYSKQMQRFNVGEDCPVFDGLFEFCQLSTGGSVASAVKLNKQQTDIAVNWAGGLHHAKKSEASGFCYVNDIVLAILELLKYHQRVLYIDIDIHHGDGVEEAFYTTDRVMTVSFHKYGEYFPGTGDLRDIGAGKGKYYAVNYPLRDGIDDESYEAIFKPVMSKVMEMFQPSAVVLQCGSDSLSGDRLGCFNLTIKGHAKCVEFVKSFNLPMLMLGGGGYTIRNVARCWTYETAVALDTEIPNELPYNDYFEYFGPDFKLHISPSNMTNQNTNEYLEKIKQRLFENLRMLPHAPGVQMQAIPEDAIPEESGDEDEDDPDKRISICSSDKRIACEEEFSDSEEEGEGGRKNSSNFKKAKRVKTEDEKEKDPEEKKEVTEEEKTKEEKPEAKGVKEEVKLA
pIC50: −log10 of the molar value.
The following molecules are listed with their measured pIC50 values.
endpointLabel: pIC50

{"columns": ["molecule", "endpointLabel", "experimentalValue"],
 "data": [
  ["CCCc1nn(C)c2c(=O)[nH]c(-c3cc(N4CCC5(CC5C(=O)NO)C4)ccc3OCC)nc12 (stereo not shown) [Example 1-67]", "pIC50", "< 5.00"],
  ["CCCc1nn(C)c2c(=O)[nH]c(-c3cc(C4CCC(C(=O)NO)CC4)ccc3OCC)nc12 (stereo not shown) [Example 1-41]", "pIC50", "< 5.00"],
  ["CCCc1nn(C)c2c(=O)[nH]c(-c3cc(CCC(=O)NO)ccc3OCC)nc12 [Example 1-31]", "pIC50", "5.00 to 6.00"],
  ["CC(c1nc2c(cnn2C2CCOCC2)c(=O)[nH]1)N1CC(Oc2ccc(N3CCC(C(=O)NO)CC3)cc2)C1 (stereo not shown) [Example 3-05]", "pIC50", "< 5.00"],
  ["CCCc1nn(C)c2c(=O)[nH]c(-c3cccc(OC4CCN(c5ncc(C(=O)NO)cn5)CC4)c3)nc12 [Example 1-14]", "pIC50", "6.00 to 8.00"],
  ["CCCc1nn(C)c2c(=O)[nH]c(-c3cc(S(=O)(=O)N4CCN(C)CC4)ccc3OCC)nc12 [Sildenafil, reference compound]", "pIC50", "< 5.00"],
  ["CCCc1nn(C)c2c(=O)[nH]c(-c3cc(S(=O)(=O)N4CCN(CCCC(=O)NO)CC4)ccc3OCC)nc12 [Example 1-05]", "pIC50", "5.00 to 6.00"]
]}
